Reported pIC50 values for a set of compounds
system: 280 human cancer cell lines; assay: OncoPanel cell proliferation assay (10-day); format: cell-based; settings: Homo sapiens, A388, Head and Neck; read-out: Cell Count IC50
pIC50: −log10 of the molar value.
QUANTITY: pIC50

* CC(C)=CCC[C@@H]1C(O)Oc2c(C)cc(O)c3c2[C@H]1CC[C@H]3C (stereo partly drawn) [Compound 2, 5,18-epoxyserrulat-14-en-8,18-diol] | 4.87
* CC(C)=CCC[C@H](CO)[C@@H]1CC[C@@H](C)c2c1cc(C)c(O)c2O [Compound 1, 7,8,18-trihydroxyserrulat-14-ene] | 5.78
* CC(C)=CCC[C@H](C)[C@@H]1CC[C@@H](C)c2c1cc(C)c(O)c2O [Compound 4, 7,8-dihydroxyserrulat-14-ene] | 5.12

----------
target: BRPF1-1 (h) bromodomain (Homo sapiens, UniProt P55201); construct: Bromodomain; test: Epigenetic binding assay, Bromodomain; conditions: Table 4; read-out: Reference IC50
Sequence (P55201 628-732 limits assumed): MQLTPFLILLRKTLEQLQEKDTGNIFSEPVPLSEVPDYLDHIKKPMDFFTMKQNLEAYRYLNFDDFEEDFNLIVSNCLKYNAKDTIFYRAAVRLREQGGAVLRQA
QUANTITY: IC50 (µM)

• CCOC(=O)Nc1cc(-c2ccc(C)c(NS(C)(=O)=O)c2)nn2c(C)nnc12 [Bromosporine, reference compound] = 0.026

----------
system: 280 human cancer cell lines; assay: OncoPanel cell proliferation assay (10-day); assay type: cell-based; settings: Homo sapiens, Hs 294T, Skin (Melanoma); read-out: Cell Count IC50
pIC50: −log10 of the molar value.
Reported pIC50 values for a set of molecules
QUANTITY: pIC50

* CC(C)=CCC[C@H](C)[C@@H]1CC[C@@H](C)c2c1cc(C)c(O)c2O [Compound 4, 7,8-dihydroxyserrulat-14-ene] | 5.08
* CC(C)=CCC[C@H](CO)[C@@H]1CC[C@@H](C)c2c1cc(C)c(O)c2O [Compound 1, 7,8,18-trihydroxyserrulat-14-ene] | 5.58
* CC(C)=CCC[C@@H]1C(O)Oc2c(C)cc(O)c3c2[C@H]1CC[C@H]3C (stereo partly drawn) [Compound 2, 5,18-epoxyserrulat-14-en-8,18-diol] | 5.15

----------
tested on: 280 human cancer cell lines; test: OncoPanel cell proliferation assay (10-day); assay type: cell-based; settings: Homo sapiens, NCI-H747, NCI-H747, Colon; read-out: Cell Count IC50
pIC50: −log10 of the molar value.
Reported pIC50 values for a set of compounds
QUANTITY: pIC50

* CC(C)=CCC[C@H](C)[C@@H]1CC[C@@H](C)c2c1cc(C)c(O)c2O [Compound 4, 7,8-dihydroxyserrulat-14-ene] | 4.55
* CC(C)=CCC[C@H](CO)[C@@H]1CC[C@@H](C)c2c1cc(C)c(O)c2O [Compound 1, 7,8,18-trihydroxyserrulat-14-ene] | 5.51

----------
tested on: 280 human cancer cell lines; assay: OncoPanel cell proliferation assay (10-day); assay type: cell-based; details: Homo sapiens, SW948, SW948, Colon; read-out: Cell Count EC50
pEC50: −log10 of the molar value.
QUANTITY: pEC50

* CC(C)=CCC[C@H](C)[C@@H]1CC[C@@H](C)c2c1cc(C)c(O)c2O [Compound 4, 7,8-dihydroxyserrulat-14-ene] | 4.53
* CC(C)=CCC[C@H](CO)[C@@H]1CC[C@@H](C)c2c1cc(C)c(O)c2O [Compound 1, 7,8,18-trihydroxyserrulat-14-ene] | 5.66
* CC(C)=CCC[C@@H]1C(O)Oc2c(C)cc(O)c3c2[C@H]1CC[C@H]3C (stereo partly drawn) | 4.83

----------
tested on: 280 human cancer cell lines; assay: OncoPanel cell proliferation assay (10-day); type: cell-based; details: Homo sapiens, Hs746T, HS 746T, Stomach; read-out: Cell Count EC50
QUANTITY: EC50 (µM)

• CC(C)=CCC[C@H](CO)[C@@H]1CC[C@@H](C)c2c1cc(C)c(O)c2O [Compound 1, 7,8,18-trihydroxyserrulat-14-ene] = 5.58
• CC(C)=CCC[C@H](C)[C@@H]1CC[C@@H](C)c2c1cc(C)c(O)c2O [Compound 4, 7,8-dihydroxyserrulat-14-ene] = 20

----------
biological target: USP 10 (h) (Homo sapiens, UniProt Q14694); assay: Epigenetic enzyme assay, Ubiquitin modifying enzymes; assay type: biochemical; settings: Table 10; read-out: Reference IC50
Sequence (Q14694 whole entry): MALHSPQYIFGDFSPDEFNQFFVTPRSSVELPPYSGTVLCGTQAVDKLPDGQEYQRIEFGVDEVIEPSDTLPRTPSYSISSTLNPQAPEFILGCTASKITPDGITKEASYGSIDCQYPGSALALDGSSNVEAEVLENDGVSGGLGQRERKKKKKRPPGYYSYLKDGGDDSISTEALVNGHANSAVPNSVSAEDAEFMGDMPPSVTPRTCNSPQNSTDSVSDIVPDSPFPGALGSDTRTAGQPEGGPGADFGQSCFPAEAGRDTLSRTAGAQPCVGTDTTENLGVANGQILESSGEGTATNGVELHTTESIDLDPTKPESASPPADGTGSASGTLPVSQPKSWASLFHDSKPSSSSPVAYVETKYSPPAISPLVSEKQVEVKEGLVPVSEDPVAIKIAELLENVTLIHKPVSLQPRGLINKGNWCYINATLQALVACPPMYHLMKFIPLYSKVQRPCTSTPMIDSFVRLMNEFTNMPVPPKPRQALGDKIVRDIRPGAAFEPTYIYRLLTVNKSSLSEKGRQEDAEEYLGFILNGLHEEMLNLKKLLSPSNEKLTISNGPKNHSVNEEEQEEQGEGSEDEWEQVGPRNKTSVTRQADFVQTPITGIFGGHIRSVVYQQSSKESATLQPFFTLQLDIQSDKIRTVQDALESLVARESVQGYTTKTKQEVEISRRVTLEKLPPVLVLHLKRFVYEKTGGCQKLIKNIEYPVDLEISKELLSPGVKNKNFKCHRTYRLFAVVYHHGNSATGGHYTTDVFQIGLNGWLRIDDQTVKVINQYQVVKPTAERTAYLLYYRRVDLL
QUANTITY: IC50 (µM)

- CN1C(=O)C=CC1=O [N-Methylmaleimide, reference compound]: 1000

----------
target: receptors (Bioprint panel); assay: biochemical; type: binding; conditions: GLUTAMATE CHANNELS AMPA (agonist radioligand); read-out: Reference Compound IC50
QUANTITY: IC50 (nM)

* N[C@@H](CCC(=O)O)C(=O)O [L-glutamate] | 370

----------
tested on: HMEC; test: OncoPanel normal cell proliferation assay (3-day); format: cell-based; conditions: Homo sapiens, 72 h; HMEC, mammary epithelial; 3-day incubation; read-out: Cell Count EC50
pEC50: −log10 of the molar value.
QUANTITY: pEC50

* C[C@@H]1C[C@@H]([C@H](O)CC2CC(=O)NC(=O)C2)C(=O)[C@@H](C)C1 [cycloheximide, reference compound] | 5.44
* CC(C)=CCC[C@H](CO)[C@@H]1CC[C@@H](C)c2c1cc(C)c(O)c2O [Compound 1, 7,8,18-trihydroxyserrulat-14-ene] | 4.52
* CN[C@@H]1C[C@H]2O[C@@](C)([C@@H]1OC)n1c3ccccc3c3c4c(c5c6ccccc6n2c5c31)C(=O)NC4 | 8.64

----------
Target: SETD8 (h) (Homo sapiens)
Sequence (Q9NQR1 1-393): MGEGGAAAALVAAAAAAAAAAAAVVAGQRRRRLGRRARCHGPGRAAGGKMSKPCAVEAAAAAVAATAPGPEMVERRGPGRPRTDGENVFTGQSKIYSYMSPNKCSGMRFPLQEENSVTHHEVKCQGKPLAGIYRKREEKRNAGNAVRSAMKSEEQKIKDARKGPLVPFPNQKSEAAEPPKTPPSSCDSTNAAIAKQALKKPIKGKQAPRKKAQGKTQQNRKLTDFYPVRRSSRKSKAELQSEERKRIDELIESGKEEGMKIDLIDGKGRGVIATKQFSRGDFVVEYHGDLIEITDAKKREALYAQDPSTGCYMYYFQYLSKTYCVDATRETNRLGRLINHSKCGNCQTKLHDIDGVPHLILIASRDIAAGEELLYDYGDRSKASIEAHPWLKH
Test: Epigenetic enzyme assay, Methyltransferases (MTs)
Type: biochemical
Details: Table 10; read-out: Reference IC50
QUANTITY: IC50 (µM)

- O=C([O-])c1ccccc1-c1c2cc(Br)c(=O)cc-2oc2[c]([Hg+])c([O-])c(Br)cc12.[Na+].[Na+].[OH-] [mercurochrome, reference compound]: 2.4

----------
system: Wi38; assay: OncoPanel normal cell proliferation assay (3-day); type: cell-based; details: Homo sapiens, WI-38, 72 h; Wi38, lung fibroblast; 3-day incubation; read-out: Cell Count IC50
pIC50: −log10 of the molar value.
QUANTITY: pIC50

* CC(=O)O[C@H]1C(=O)[C@@]2(C)[C@H]([C@H](OC(=O)c3ccccc3)[C@]3(O)C[C@H](OC(=O)[C@H](O)[C@@H](NC(=O)c4ccccc4)c4ccccc4)C(C)=C1C3(C)C)[C@]1(OC(C)=O)CO[C@@H]1C[C@@H]2O [Paclitaxel, paclitaxel] | 8.03
* CC(C)=CCC[C@H](CO)[C@@H]1CC[C@@H](C)c2c1cc(C)c(O)c2O [Compound 1, 7,8,18-trihydroxyserrulat-14-ene] | 4.98
* N#CC(C#N)=NNc1cccc(Cl)c1 [Carbonyl cyanide 3-chlorophenylhydrazone] | 5.05
* C[C@@H]1C[C@@H]([C@H](O)CC2CC(=O)NC(=O)C2)C(=O)[C@@H](C)C1 [cycloheximide, reference compound] | 6.06

----------
target: receptors (Bioprint panel); assay: biochemical; type: binding; conditions: Cl- channel (GABA-gated) (antagonist radioligand); read-out: Reference Compound IC50
QUANTITY: IC50 (nM)

* C=C(C)[C@@H]1[C@H]2OC(=O)[C@@H]1[C@]1(O)C[C@H]3O[C@]34C(=O)O[C@H]2[C@]14C | 330

----------
system: 280 human cancer cell lines; test: OncoPanel cell proliferation assay (10-day); assay type: cell-based; details: Homo sapiens, CAMA-1, CAMA-1, Breast; read-out: Cell Count IC50
Reported IC50 values for a set of compounds
QUANTITY: IC50

- CC(C)=CCC[C@@H]1C(O)Oc2c(C)cc(O)c3c2[C@H]1CC[C@H]3C (stereo partly drawn): > 30 µM
- CC(C)=CCC[C@H](CO)[C@@H]1CC[C@@H](C)c2c1cc(C)c(O)c2O [Compound 1, 7,8,18-trihydroxyserrulat-14-ene]: 3.51 µM
- CC(C)=CCC[C@H](C)[C@@H]1CC[C@@H](C)c2c1cc(C)c(O)c2O [Compound 4, 7,8-dihydroxyserrulat-14-ene]: > 30 µM

----------
test system: 280 human cancer cell lines; test: OncoPanel cell proliferation assay (10-day); type: cell-based; details: Homo sapiens, T24, Bladder; read-out: Cell Count IC50
pIC50: −log10 of the molar value.
Reported pIC50 values for a set of compounds
QUANTITY: pIC50

* CC(C)=CCC[C@@H]1C(O)Oc2c(C)cc(O)c3c2[C@H]1CC[C@H]3C (stereo partly drawn) | 4.69
* CC(C)=CCC[C@H](C)[C@@H]1CC[C@@H](C)c2c1cc(C)c(O)c2O [Compound 4, 7,8-dihydroxyserrulat-14-ene] | 4.91
* CC(C)=CCC[C@H](CO)[C@@H]1CC[C@@H](C)c2c1cc(C)c(O)c2O [Compound 1, 7,8,18-trihydroxyserrulat-14-ene] | 5.84

The measurements presented in this section are drawn from patent US11331299B2.
